# normalized growth per record follows
assay: chemical genetic growth profiling, strain panel (AID 1159580);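 further: tested at 20 µM; growth read once vehicle control cultures reached saturation at 30 °C; 1 = growth at the plate median or of vehicle wells; lower values mean less growth of the strain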; conditions: S. cerevisiae deletion strains, growth OD, locus YCR088W, strain abp1, stronger effect = lower value
Hit rate of the full screen: of about 5,500 compounds, about 2,000 (36%) were called active. Roughly 18% stayed inconclusive and do not appear here. Some of the results follow.

Some compounds with known normalized growth results, for comparison:
Compound: CCCCC(=O)N(Cc1ccc(-c2ccccc2-c2nn[nH]n2)cc1)[C@H](C(=O)O)C(C)C
Endpoint Name: normalized growth
Value Observed: 0.99 (inactive)
--
Compound: COc1cc2ccc(=O)oc2c(OC)c1OC
Endpoint Name: normalized growth
Value Observed: 0.98 (inactive)
--
Compound: CC(=O)OCC(=O)[C@@]1(O)CCC2C3CCC4=CC(=O)CC[C@]4(C)[C@@]3(F)[C@@H](O)C[C@@]21C (stereo partly specified)
Endpoint Name: normalized growth
Value Observed: 1.01 (inactive)
--
Compound: c1coc(CNc2ncnc3nc[nH]c23)c1
Endpoint Name: normalized growth
Value Observed: 0.991 (inactive)
--
Compound: COc1c2occc2cc2ccc(=O)oc12
Endpoint Name: normalized growth
Value Observed: 0.998 (inactive)
--
Compound: O=c1ccc2cc(O[C@@H]3O[C@H](CO)[C@@H](O)[C@H](O)[C@H]3O)c(O)cc2o1
Endpoint Name: normalized growth
Value Observed: 0.978 (inactive)

Any idea what its normalized growth is? The compound is C[N+]1(C)CCc2cc3c(cc2[C@H]1C1OC(=O)c2c1ccc1c2OCO1)OCO3 (stereo partly specified)
0.997 (inactive)

// lookup normalized growth for CC(=O)Oc1ccc2c(c1)CCC1C2CCC2(C)C1CC(OC(C)=O)C2OC(C)=O (stereo unspecified)
0.992 (inactive)

====

test: chemical genetic growth profiling, strain panel (AID 1159580);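 further: tested at 20 µM; growth read once vehicle control cultures reached saturation at 30 °C; 1 = growth at the plate median or of vehicle wells; lower values mean less growth of the strain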; conditions: S. cerevisiae deletion strains, growth OD, locus YDR195W, strain ref2
Hit rate of the full screen: of about 5,500 compounds, about 2,000 (36%) were called active. Another 18% or so got no clear call; they are omitted. Cut-off read from the data, not from the text of the source: active = normalized growth mostly below about 0.91 (no sharp cut-off); inconclusive = no clear call, values can overlap the other calls; inactive = mostly above about 0.92. The list shows a part of the results.
Permitted responses: class 1 = active, class 0 = inactive

Molecule: CC(=O)Oc1ccc2c(c1)CCC1C2CCC2(C)C1CC(OC(C)=O)C2OC(C)=O (stereo unspecified)
Label Value: class 0

Kindly consider the entry below.
What is the recorded call for this molecule in the test? CC(=O)OC1CCC2C3CCc4cc(O)ccc4C3CCC12C (stereo unspecified)
class 1

====

Here, each record is paired with measured normalized growth data.
test: chemical genetic growth profiling, strain panel (AID 1159580);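 further: tested at 20 µM; growth read once vehicle control cultures reached saturation at 30 °C; 1 = growth at the plate median or of vehicle wells; lower values mean less growth of the strain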; details: S. cerevisiae deletion strains, growth OD, locus YKL009W, strain mrt4, stronger effect = lower value
Screen size: about 5,500 compounds; about 2,000 (36%) were called active. Another 18% or so got no clear call; they are omitted. This is one part of the list.
Lab note: jot down the number only; don't add units.

Molecule: COc1cc(O)c(C(=O)O)c(O)c1
normalized growth: 1.01

Entry COc1cc(O)c(C(=O)c2ccccc2)c(OC)c1 : reported normalized growth = ?
0.99

Give the measured normalized growth of Cn1nnnc1SCC1=C(C(=O)O)N2C(=O)C(NC(=O)C(OC=O)c3ccccc3)C2SC1 (stereo not given) .
1.02

Could you share which normalized growth value was measured for N#Cc1ccc2c(c1)N(CCCN1CCC(O)CC1)c1ccccc1S2 ?
1.01

Entry under review: COc1ccc2c(=O)c(CC(=O)O)coc2c1 . Reported normalized growth?
0.981
